# target.entity: UniProt P22909
# Sequence (P22909 1-465): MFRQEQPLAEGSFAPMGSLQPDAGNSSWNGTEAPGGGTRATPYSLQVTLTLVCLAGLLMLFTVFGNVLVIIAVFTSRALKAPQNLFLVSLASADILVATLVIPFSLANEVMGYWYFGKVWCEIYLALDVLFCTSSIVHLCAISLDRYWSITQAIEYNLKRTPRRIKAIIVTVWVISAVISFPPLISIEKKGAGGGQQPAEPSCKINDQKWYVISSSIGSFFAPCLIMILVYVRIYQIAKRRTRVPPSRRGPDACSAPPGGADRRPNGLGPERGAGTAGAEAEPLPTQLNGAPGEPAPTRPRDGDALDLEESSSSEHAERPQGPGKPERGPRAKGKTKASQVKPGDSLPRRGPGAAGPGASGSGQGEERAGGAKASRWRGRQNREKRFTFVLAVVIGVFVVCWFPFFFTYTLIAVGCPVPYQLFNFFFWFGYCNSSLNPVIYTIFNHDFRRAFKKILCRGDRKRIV
# measurement.notes: cell-based
# test.conditions: EC50, GαoA recruitment to α2A-AR, nanoBRET, GαoA
value.type: EC50 (µM)

            compound   target_entity  observed
0  NCCc1ccc(O)c(O)c1  UniProt P22909     0.836

###

# target.entity: α2A-AR (Rattus norvegicus)
# measurement.notes: cell-based
# test.conditions: EC50, Gαi3 recruitment to α2A-AR, nanoBRET, Gαi3
value.type: EC50 (µM)

>>> df
            compound  value_type  result_unit  observed
0  NCCc1ccc(O)c(O)c1        EC50           µM      1.03

###

# target.entity: D2R (Homo sapiens)
# Sequence (P14416 whole entry): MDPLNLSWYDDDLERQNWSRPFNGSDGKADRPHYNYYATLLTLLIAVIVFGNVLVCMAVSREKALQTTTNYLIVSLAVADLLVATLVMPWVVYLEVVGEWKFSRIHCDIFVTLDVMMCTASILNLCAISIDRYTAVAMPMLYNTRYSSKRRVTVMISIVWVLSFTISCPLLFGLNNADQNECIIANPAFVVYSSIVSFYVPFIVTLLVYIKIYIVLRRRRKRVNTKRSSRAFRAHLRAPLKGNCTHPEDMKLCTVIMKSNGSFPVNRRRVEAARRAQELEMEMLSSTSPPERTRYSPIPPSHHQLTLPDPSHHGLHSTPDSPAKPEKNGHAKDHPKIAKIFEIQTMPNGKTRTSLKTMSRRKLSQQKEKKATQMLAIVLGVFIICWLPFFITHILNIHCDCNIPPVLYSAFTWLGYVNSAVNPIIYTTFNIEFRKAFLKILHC
# Sequence (P32121 whole entry partner): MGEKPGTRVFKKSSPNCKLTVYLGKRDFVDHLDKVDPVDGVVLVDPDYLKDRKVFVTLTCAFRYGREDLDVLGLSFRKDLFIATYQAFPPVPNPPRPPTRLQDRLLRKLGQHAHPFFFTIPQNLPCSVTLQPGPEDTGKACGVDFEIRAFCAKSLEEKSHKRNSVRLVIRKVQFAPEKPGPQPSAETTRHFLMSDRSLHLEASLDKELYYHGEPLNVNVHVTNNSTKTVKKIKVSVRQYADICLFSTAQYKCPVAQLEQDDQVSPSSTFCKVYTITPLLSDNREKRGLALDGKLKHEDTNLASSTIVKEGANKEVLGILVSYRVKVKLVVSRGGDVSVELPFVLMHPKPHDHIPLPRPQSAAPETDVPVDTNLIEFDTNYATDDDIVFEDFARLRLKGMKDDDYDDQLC
# measurement.notes: cell-based
value.type: EC50 (nM)

                                   compound  value_type  observed
0  CC(C)C[C@H]1C(=O)N2CCC[C@H]2[C@]2(O)O[C@](NC(=O)[C@@H]3C=C4c5cccc6[nH]c(Br)c(c56)C[C@H]4N(C)C3)(C(C)C)C(=O)N12        EC50       286
